Just for reference, paper PMC3117731 is where these values come from.

- Test system: primary human hepatocytes
- ASSAY METHOD TEXT: Apparent (lumped active transport and passive diffusion) import and export in primary human hepatocytes
- Assay type: in vitro ADME
- SETUP CONDITIONS: Individual 2, nominal value from optimization
ASSAY ENDPOINT: κex (apparent rate constant of export) (µL/min)

Field: example entries. Status: answers known.
1. CC(C)c1c(C(=O)Nc2ccc(O)cc2)c(-c2ccccc2)c(-c2ccc(F)cc2)n1CC[C@@H](O)C[C@@H](O)CC(=O)O [ASpOH, para-hydroxy-atorvastatin acid]	1.25
2. CC(C)c1c(C(=O)Nc2ccccc2)c(-c2ccccc2)c(-c2ccc(F)cc2)n1CC[C@@H]1C[C@@H](O)CC(=O)O1 [ASL, atorvastatin lactone]	2.48

[I] CC(C)c1c(C(=O)Nc2ccccc2O)c(-c2ccccc2)c(-c2ccc(F)cc2)n1CC[C@@H]1C[C@@H](O)CC(=O)O1 [ASLoOH, ortho-hydroxy-atorvastatin lactone]
[II] CC(C)c1c(C(=O)Nc2ccccc2O)c(-c2ccccc2)c(-c2ccc(F)cc2)n1CCC(O)CC(O)CC(=O)O (stereo not shown) [ASoOH, ortho-hydroxy-atorvastatin acid]
Data request: Would you kindly point out which of I and II has the smaller κex (apparent rate constant of export) figure? Record your answer as the label of the chosen record.
Data returned: II
(II: 3.62 µL/min, I: 86.3 µL/min)

* * *

- SYSTEM NAME: CYP3A4 (Homo sapiens)
- Sequence (P08684 2-503 limits assumed): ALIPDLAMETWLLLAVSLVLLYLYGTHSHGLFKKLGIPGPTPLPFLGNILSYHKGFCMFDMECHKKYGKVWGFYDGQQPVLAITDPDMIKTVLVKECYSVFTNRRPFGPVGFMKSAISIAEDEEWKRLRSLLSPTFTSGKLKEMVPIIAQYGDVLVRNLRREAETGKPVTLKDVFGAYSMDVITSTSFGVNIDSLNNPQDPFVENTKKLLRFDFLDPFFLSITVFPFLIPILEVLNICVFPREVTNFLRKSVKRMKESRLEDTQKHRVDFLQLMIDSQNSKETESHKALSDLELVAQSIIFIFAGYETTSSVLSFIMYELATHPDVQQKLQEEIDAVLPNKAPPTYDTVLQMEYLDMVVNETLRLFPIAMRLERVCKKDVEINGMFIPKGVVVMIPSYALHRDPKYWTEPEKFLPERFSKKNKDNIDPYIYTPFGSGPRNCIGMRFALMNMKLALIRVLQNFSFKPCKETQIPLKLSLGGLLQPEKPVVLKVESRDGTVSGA
- SETUP CONDITIONS: Individual 2; predicted via relative abundance approach from individual 1 and CYP3A4 protein concentration
ASSAY ENDPOINT: rmax,3A4 (maximal rate of CYP3A4 hydroxylation to the labelled metabolite) (pmol/min/mL)

Take a look at these entries with their results.
1. CC(C)c1c(C(=O)Nc2ccc(O)cc2)c(-c2ccccc2)c(-c2ccc(F)cc2)n1CC[C@@H]1C[C@@H](O)CC(=O)O1 [ASLpOH, para-hydroxy-atorvastatin lactone]	731
2. CC(C)c1c(C(=O)Nc2ccccc2O)c(-c2ccccc2)c(-c2ccc(F)cc2)n1CC[C@@H]1C[C@@H](O)CC(=O)O1 [ASLoOH, ortho-hydroxy-atorvastatin lactone]	1640

[P] CC(C)c1c(C(=O)Nc2ccccc2O)c(-c2ccccc2)c(-c2ccc(F)cc2)n1CCC(O)CC(O)CC(=O)O (stereo not shown) [ASoOH, ortho-hydroxy-atorvastatin acid]
[Q] CC(C)c1c(C(=O)Nc2ccc(O)cc2)c(-c2ccccc2)c(-c2ccc(F)cc2)n1CC[C@@H](O)C[C@@H](O)CC(=O)O [ASpOH, para-hydroxy-atorvastatin acid]
Data request: Kindly compare P with Q and tell me which has the lower rmax,3A4 (maximal rate of CYP3A4 hydroxylation to the labelled metabolite) figure. Use the label to indicate which entry you chose.
Data returned: Q

* * *

- SYSTEM NAME: CYP3A4 (Homo sapiens)
- SETUP CONDITIONS: Individual 1; nominal value from optimization; per ml intracellular volume
ASSAY ENDPOINT: rmax,3A4 (maximal rate of CYP3A4 hydroxylation to the labelled metabolite) (pmol/min/mL)

[P] CC(C)c1c(C(=O)Nc2ccc(O)cc2)c(-c2ccccc2)c(-c2ccc(F)cc2)n1CC[C@@H]1C[C@@H](O)CC(=O)O1 [ASLpOH, para-hydroxy-atorvastatin lactone]
[Q] CC(C)c1c(C(=O)Nc2ccccc2O)c(-c2ccccc2)c(-c2ccc(F)cc2)n1CC[C@@H]1C[C@@H](O)CC(=O)O1 [ASLoOH, ortho-hydroxy-atorvastatin lactone]
Data request: Response body: label of entry with the larger rmax,3A4 (maximal rate of CYP3A4 hydroxylation to the labelled metabolite); valid values P , Q . State the label of the item chosen.
Data returned: Q

[I] CC(C)c1c(C(=O)Nc2ccc(O)cc2)c(-c2ccccc2)c(-c2ccc(F)cc2)n1CC[C@@H](O)C[C@@H](O)CC(=O)O [ASpOH, para-hydroxy-atorvastatin acid]
[II] CC(C)c1c(C(=O)Nc2ccccc2O)c(-c2ccccc2)c(-c2ccc(F)cc2)n1CCC(O)CC(O)CC(=O)O (stereo not shown) [ASoOH, ortho-hydroxy-atorvastatin acid]
Data request: For the pair I and II , which member has the lower rmax,3A4 (maximal rate of CYP3A4 hydroxylation to the labelled metabolite) number? In your reply, give the label of the chosen option.
Data returned: I
